- experimental.system: Adrenergic receptor alpha (Rattus norvegicus) (UniProt P15823+P23944+P43140+P22086+P19328+P22909)
- method.description: Irreversible inhibition of alpha adrenergic receptor in rat vas deferens assessed as inhibition of NE-induced contractions at 2 x 10' -5 M after 30 mins relative to [N,N'-bis(o-methoxybenzylamino-n-hexyl)cystamine
- Type: tissue-based
observable: inhibition (%)

Examples from the recorded data:
{"molecular.string": "CCOc1ccccc1CNCCCCCCNCCSSCCNCCCCCCNCc1ccccc1OCC", "observable": "inhibition", "result.number": 81}
{"molecular.string": "COc1ccccc1CNCCCCCCCNCCSSCCNCCCCCCCNCc1ccccc1OC", "observable": "inhibition", "result.number": 71}
{"molecular.string": "NCCCCCCCCCNCCSSCCNCCCCCCCCCN", "observable": "inhibition", "result.number": 92}
{"molecular.string": "COc1ccc(CNCCCCCCNCCSSCCNCCCCCCNCc2ccc(OC)cc2OC)c(OC)c1", "observable": "inhibition", "result.number": 26}
{"molecular.string": "Clc1ccccc1CNCCCCCCNCCSSCCNCCCCCCNCc1ccccc1Cl", "observable": "inhibition", "result.number": 44}

P = Clc1cccc(Cl)c1CNCCCCCCNCCSSCCNCCCCCCNCc1c(Cl)cccc1Cl
Q = NCCCCCNCCSSCCNCCCCCN
Select one: P or Q . Criterion: greater recorded inhibition. Mark your selection by writing its label.
P
